Values from patent US20200385730

- Test Target: CotE (rCotE N281-F712) (Clostridium difficile)
- Assay: SPR
- Applied Conditions: tags: C-terminal His
Parameter: Kd

Given the binder CotE_D2 (ssDNA) DNA: CCAGTGTAGACTACTCAATGCTCGACATTTCCGCCCCGACGGCCCTCCTAGTGATGGGGAGAGTACTATCCACAGGTCAACC , what is its reported Kd?
> 250 nM
